# Assay info: Circular dichroism (CD) analysis of alpha-helicity
# Type: physicochemical
# Run parameters: 222 nm, benign CD buffer (20 mM phosphoric acid, pH 2), 0% TFE, 0.05 mg/ml, 4° C.
Where a SMILES comes first, the peptide text is derived from it. Bridges are numbered along the chain shown (N, C = ends). [ ]: non-standard residue; d: D form. R8 = C=CCCCCCC[C@@](C)(N)C(=O)O; S5 = C=CCCC[C@](C)(N)C(=O)O; Nle = CCCC[C@H](N)C(=O)O
Molar Ellipticity Benign (222 in 0% TFE) values, listed per item
Numbers only here, please. The scale is deg cm^2dmol^−1.

CC(=O)N[C@@H](CC(C)C)C(=O)N[C@H](C(=O)N[C@@H](Cc1ccccc1)C(=O)N[C@]1(C)CCCCCCC=CCCC[C@@](C)(C(=O)N[C@@H](CO)C(=O)N[C@@H](C)C(=O)N[C@@H](Cc2ccccc2)C(N)=O)NC(=O)[C@H](CC(C)C)NC(=O)[C@H](CCC(N)=O)NC(=O)[C@H](C)NC(=O)[C@H](Cc2c[nH]c3ccccc23)NC(=O)[C@H](Cc2ccc(O)cc2)NC(=O)[C@H](C)NC1=O)[C@@H](C)O [compound 7] (Ac-LTF[R8]AYWAQL[S5]SAF-NH2; staple 4-11) = 124
CC[C@H](C)[C@H](NC(=O)[C@H](C)NC(=O)[C@H](C)NC(=O)[C@]1(C)CCC/C=C/CCCCCC[C@@](C)(NC(=O)[C@H](Cc2ccccc2)NC(=O)[C@@H](NC(=O)[C@H](CC(C)C)NC(C)=O)[C@@H](C)O)C(=O)N[C@@H](C)C(=O)N[C@@H](Cc2ccc(O)cc2)C(=O)N[C@@H](Cc2c[nH]c3ccccc23)C(=O)N[C@@H](C)C(=O)N[C@@H](CCC(N)=O)C(=O)N[C@@H](CC(C)C)C(=O)N1)C(=O)N[C@H](C)C(N)=O = −121.2

Lab note: next compound to report on.
Request the reported Molar Ellipticity Benign (222 in 0% TFE) associated with CCCC[C@H](NC(=O)[C@H](CCC(N)=O)NC(=O)[C@H](CCC(N)=O)NC(=O)[C@]1(C)CCCC=CCCCCCC[C@@](C)(NC(=O)[C@H](Cc2ccccc2)NC(C)=O)C(=O)N[C@@H](C)C(=O)N[C@@H](Cc2ccc(O)cc2)C(=O)N[C@@H](Cc2c[nH]c3ccccc23)C(=O)N[C@@H]([C@@H](C)O)C(=O)N[C@@H](C)C(=O)N[C@@H](CC(C)C)C(=O)N1)C(=O)N[C@@H](C(N)=O)C(C)C [compound 41] (Ac-F[R8]AYWTAL[S5]QQ[Nle][dV]-NH2; staple 2-9)
−909

====

Molar Ellipticity 50% TFE (222 in 50% TFE) values, listed per item
# Assay info: Circular dichroism (CD) analysis of alpha-helicity
# Format: physicochemical
# Run parameters: 222 nm, CD buffer with 50% TFE, 0.05 mg/ml, 4° C.
Where a SMILES comes first, the peptide text is derived from it. Bridges are numbered along the chain shown (N, C = ends). [ ]: non-standard residue; d: D form. R8 = C=CCCCCCC[C@@](C)(N)C(=O)O; S5 = C=CCCC[C@](C)(N)C(=O)O; Nle = CCCC[C@H](N)C(=O)O
Write the figure, then the unit, nothing else.

// worked examples, Molar Ellipticity 50% TFE (222 in 50% TFE) included
CC[C@H](C)[C@H](NC(=O)[C@H](C)NC(=O)[C@H](C)NC(=O)[C@]1(C)CCC/C=C/CCCCCC[C@@](C)(NC(=O)[C@H](Cc2ccccc2)NC(=O)[C@@H](NC(=O)[C@H](CC(C)C)NC(C)=O)[C@@H](C)O)C(=O)N[C@@H](C)C(=O)N[C@@H](Cc2ccc(O)cc2)C(=O)N[C@@H](Cc2c[nH]c3ccccc23)C(=O)N[C@@H](C)C(=O)N[C@@H](CCC(N)=O)C(=O)N[C@@H](CC(C)C)C(=O)N1)C(=O)N[C@H](C)C(N)=O = −17957 deg cm^2dmol^−1
CC(=O)N[C@@H](CC(C)C)C(=O)N[C@H](C(=O)N[C@@H](Cc1ccccc1)C(=O)N[C@]1(C)CCCCCCC=CCCC[C@@](C)(C(=O)N[C@@H](C)C(=O)N[C@@H](C)C(=O)N[C@@H](C)C(=O)N[C@H](C)C(N)=O)NC(=O)[C@H](CC(C)C)NC(=O)[C@H](CCC(N)=O)NC(=O)[C@H](C)NC(=O)[C@H](Cc2c[nH]c3ccccc23)NC(=O)[C@H](Cc2ccc(O)cc2)NC(=O)[C@H](C)NC1=O)[C@@H](C)O (single isomer, unassigned) = −17974 deg cm^2dmol^−1
CC(=O)N[C@@H](CC(C)C)C(=O)N[C@H](C(=O)N[C@@H](Cc1ccccc1)C(=O)N[C@]1(C)CCCCCCC=CCCC[C@@](C)(C(=O)N[C@@H](CO)C(=O)N[C@@H](C)C(=O)N[C@@H](Cc2ccccc2)C(N)=O)NC(=O)[C@H](CC(C)C)NC(=O)[C@H](CCC(N)=O)NC(=O)[C@H](C)NC(=O)[C@H](Cc2c[nH]c3ccccc23)NC(=O)[C@H](Cc2ccc(O)cc2)NC(=O)[C@H](C)NC1=O)[C@@H](C)O [compound 7] (Ac-LTF[R8]AYWAQL[S5]SAF-NH2; staple 4-11) = −19921.4 deg cm^2dmol^−1
CCCC[C@H](NC(=O)[C@H](CCC(N)=O)NC(=O)[C@H](CCC(N)=O)NC(=O)[C@]1(C)CCCC=CCCCCCC[C@@](C)(NC(=O)[C@H](Cc2ccccc2)NC(C)=O)C(=O)N[C@@H](C)C(=O)N[C@@H](Cc2ccc(O)cc2)C(=O)N[C@@H](Cc2c[nH]c3ccccc23)C(=O)N[C@@H]([C@@H](C)O)C(=O)N[C@@H](C)C(=O)N[C@@H](CC(C)C)C(=O)N1)C(=O)N[C@@H](C(N)=O)C(C)C [compound 41] (Ac-F[R8]AYWTAL[S5]QQ[Nle][dV]-NH2; staple 2-9) = −21319.4 deg cm^2dmol^−1
CCCC[C@H](NC(=O)[C@H](C)NC(=O)[C@H](C)NC(=O)[C@]1(C)CCC/C=C/CCCCCC[C@@](C)(NC(=O)[C@H](Cc2ccccc2)NC(=O)[C@@H](NC(=O)[C@H](CC(C)C)NC(C)=O)[C@@H](C)O)C(=O)N[C@@H](C)C(=O)N[C@@H](Cc2ccc(O)cc2)C(=O)N[C@@H](Cc2c[nH]c3ccccc23)C(=O)N[C@@H](C)C(=O)N[C@@H](CCC(N)=O)C(=O)N[C@@H](CC(C)C)C(=O)N1)C(=O)N[C@@H](C)C(N)=O = −21509.7 deg cm^2dmol^−1

Request the reported Molar Ellipticity 50% TFE (222 in 50% TFE) associated with CC(=O)N[C@@H](CC(C)C)C(=O)N[C@H](C(=O)N[C@@H](Cc1ccccc1)C(=O)N[C@]1(C)CCCCCCC=CCCC[C@@](C)(C(=O)N[C@@H](CO)C(=O)N[C@@H](C)C(=O)N[C@@H](C)C(N)=O)NC(=O)[C@H](CC(C)C)NC(=O)[C@H](CCC(N)=O)NC(=O)[C@H](C)NC(=O)[C@H](Cc2c[nH]c3ccccc23)NC(=O)[C@H](Cc2ccc(O)cc2)NC(=O)[C@H](C)NC1=O)[C@@H](C)O [compound 11] (Ac-LTF[R8]AYWAQL[S5]SAA-NH2; staple 4-11)
−16623.4 deg cm^2dmol^−1

Try this compound too: CC(=O)N[C@@H](CC(C)C)C(=O)N[C@H](C(=O)N[C@@H](Cc1ccccc1)C(=O)N[C@]1(C)CCCCCCC=CCCC[C@@](C)(C(=O)N[C@@H](C)C(=O)N[C@@H](C)C(=O)N[C@@H](C)C(=O)N[C@@H](C)C(=O)N[C@H](C)C(N)=O)NC(=O)[C@H](CC(C)C)NC(=O)[C@H](CCC(N)=O)NC(=O)[C@H](C)NC(=O)[C@H](Cc2c[nH]c3ccccc23)NC(=O)[C@H](Cc2ccc(O)cc2)NC(=O)[C@H](C)NC1=O)[C@@H](C)O
−19032.6 deg cm^2dmol^−1

Try this compound too: CC(=O)N[C@@H](CC(C)C)C(=O)N[C@H](C(=O)N[C@@H](Cc1ccccc1)C(=O)N[C@]1(C)CCCCCCC=CCCC[C@@](C)(C(=O)N[C@@H](Cc2c[nH]cn2)C(=O)N[C@@H](Cc2c[nH]cn2)C(=O)N[C@@H](CC(C)C)C(=O)N[C@H](C)C(N)=O)NC(=O)[C@H](CC(C)C)NC(=O)[C@H](CCC(N)=O)NC(=O)[C@H](C)NC(=O)[C@H](Cc2c[nH]c3ccccc23)NC(=O)[C@H](Cc2ccc(O)cc2)NC(=O)[C@H](C)NC1=O)[C@@H](C)O [compound 43] (Ac-LTF[R8]AYWAQL[S5]HHL[dA]-NH2; staple 4-11)
−18247.4 deg cm^2dmol^−1
